Test system: AS120
assayProcedure: qHTS profiling for inhibitors of Plasmodium falciparum proliferation (AID 504749); further: nearly all actives have a fitted effect of over 60% in size
conditionsUsed: P. falciparum in erythrocytes, SYBR Green DNA, 72 h; series mostly up to 28.7 µM
Results filed as inconclusive are left out. Active and inactive are the calls of the source. The call rests on the fitted dose curve; in most records, active means well fitted inhibition curve with a large enough effect; inconclusive means small, poorly fitted or top-dose-only effect; inactive means flat fitted curve, though single readings scatter.
Outcomes: active, inactive

| molecule | groupLabel |
| --- | --- |
| C=Cc1ccc(S(=O)(=O)O)cc1 | inactive |
| OCCCNc1ccccc1 | inactive |
| CC(CCc1ccc(O)cc1)NCC(O)c1ccc(O)cc1 (stereo not drawn) | inactive |
| OCl | inactive |
| O=S(=O)(O)CCCS(=O)(=O)O | inactive |
| F[Si-2](F)(F)(F)(F)F | inactive |
| CCCc1nc(C(C)(C)O)c(C(=O)OCc2oc(=O)oc2C)n1Cc1ccc(-c2ccccc2-c2nn[nH]n2)cc1 | inactive |
| CC(=O)Oc1cccc(C(=O)O)c1OC(C)=O | inactive |
| C=CC[C@@H]1/C=C(\C)C[C@H](C)C[C@H](OC)[C@H]2O[C@@](O)(C(=O)C(=O)N3CCCC[C@H]3C(=O)O[C@H](/C(C)=C/[C@@H]3CC[C@@H](O)[C@H](OC)C3)[C@H](C)[C@@H](O)CC1=O)[C@H](C)C[C@@H]2OC | active |
| O=C1NCCN1c1ncc([N+](=O)[O-])s1 | inactive |
| COC1=C(OC)C(=O)C(C/C=C(\C)CC/C=C(\C)CC/C=C(\C)CC/C=C(\C)CC/C=C(\C)CC/C=C(\C)CC/C=C(\C)CC/C=C(\C)CC/C=C(\C)CCC=C(C)C)=C(C)C1=O | inactive |
| CC(C)(COP(=O)(O)OP(=O)(O)OC[C@H]1O[C@@H](n2cnc3c(N)ncnc32)[C@H](O)[C@@H]1OP(=O)(O)O)C(O)C(=O)NCCC(=O)NCCS (stereo partly drawn) | inactive |
| CCOC(C)OCC | inactive |

----------
Catalogue of Potency values
assayProcedure: Drug repurposing screens with cells derived from glioblastoma tumor samples (AID 1345199); further: potency means the concentration at half of the fitted maximal effect; nearly all actives have a fitted effect of over 40% in size
conditionsUsed: GBM patient neurospheres viability, ATP luminescence, 48 h; tumour line A
Inconclusive results are not listed. Active and inactive are the calls of the source. Calls follow the shape of the dose curve; as a rule, active = well fitted inhibition curve with a large enough effect; inconclusive = small, poorly fitted or top-dose-only effect; inactive = flat fitted curve, though single readings scatter.

| compound | Potency |
| --- | --- |
| O=C(CCCN1CCC(C(=O)c2ccc(F)cc2)CC1)c1ccc(F)cc1 | 8.91 µM (active) |
| CC(C)(C)NC[C@H](O)COc1ccccc1C1CCCC1 | 4.47 µM (active) |
| NC(N)=NCC1COc2ccccc2O1 (stereo unspecified) | 35.5 µM (active) |
| C=C1CC[C@H](O)CC1=C/C=C1\CCC[C@]2(C)[C@@H]([C@H](C)CC[C@@H](O)C(C)(C)O)CC[C@@H]12 | 8.91 µM (active) |
| S=C1SCN(Cc2ccccc2)CN1Cc1ccccc1 | 11.2 µM (active) |
| CN(C)CCOc1ccc(/C(=C(/CCCl)c2ccccc2)c2ccccc2)cc1 | 8.91 µM (active) |

----------
Tested on: CP262
assayProcedure: qHTS profiling for inhibitors of Plasmodium falciparum proliferation (AID 504749); further: nearly all actives have a fitted effect of over 60% in size
conditionsUsed: P. falciparum in erythrocytes, SYBR Green DNA, 72 h; series mostly up to 28.7 µM
Records with an inconclusive call do not appear. The source made the active and inactive calls. Calls follow the shape of the dose curve; as a rule, active = well fitted inhibition curve with a large enough effect; inconclusive = small, poorly fitted or top-dose-only effect; inactive = flat fitted curve, though single readings scatter.
Outcome codes: 1 (yes) = active, 0 (no) = inactive

| compound | groupLabel |
| --- | --- |
| N=C(N)n1cccn1 | 0 (no) |
| Cc1cc(-c2ccc(N=Nc3c(S(=O)(=O)O)cc4cc(S(=O)(=O)O)cc(N)c4c3O)c(C)c2)ccc1N=Nc1c(S(=O)(=O)O)cc2cc(S(=O)(=O)O)cc(N)c2c1O | 0 (no) |
| CC(=O)Oc1cc(C(F)(F)F)ccc1C(=O)O | 0 (no) |
| Cc1cc(C(=O)NCCc2ccc(S(=O)(=O)NC(=O)NN3CCCCCC3)cc2)no1 | 0 (no) |
| C=CC(C)(O)CC/C=C(\C)CCC=C(C)C (centres undefined) | 0 (no) |
| CSc1nc2cc(Oc3cccc(Cl)c3Cl)c(Cl)cc2[nH]1 | 0 (no) |
| OC[C@H]1O[C@@](CO)(O[C@H]2O[C@H](CO)[C@@H](O)[C@H](O)[C@H]2O)[C@@H](O)[C@@H]1O | 0 (no) |
| N#Cc1ccc2c(c1)N(CCCN1CCC(O)CC1)c1ccccc1S2 | 0 (no) |
| CC(C)[C@@H](N)C(=O)O | 0 (no) |
| CO[C@H]1C[C@@H]2CC[C@@H](C)[C@@](O)(O2)C(=O)C(=O)N2CCCC[C@H]2C(=O)O[C@H]([C@H](C)C[C@@H]2CC[C@@H](OC(=O)C(C)(CO)CO)[C@H](OC)C2)CC(=O)[C@H](C)/C=C(\C)[C@@H](O)[C@@H](OC)C(=O)[C@H](C)C[C@H](C)/C=C/C=C/C=C/1C | 0 (no) |
| Cc1ccc(S(=O)(=O)NCl)cc1 | 0 (no) |
| CCCCCc1ccc(C)cc1O | 0 (no) |
| COC(=O)c1ccccc1O | 0 (no) |
| OCl | 0 (no) |
| COc1ccccc1N1CCN(CCCC(=O)c2ccc(F)cc2)CC1 | 0 (no) |
| CN(C)C=Nc1c(I)cc(I)c(CCC(=O)O)c1I | 0 (no) |
| CC1=CC(=C(c2ccc(N)cc2)c2ccc(N)cc2)C=CC1=N | 1 (yes) |
| CC(/C=C/C=C(\C)C(=O)O[C@@H]1O[C@H](CO[C@@H]2O[C@H](CO)[C@@H](O)[C@H](O)[C@H]2O)[C@@H](O)[C@H](O)[C@H]1O)=C\C=C\C=C(C)\C=C\C=C(/C)C(=O)O[C@@H]1O[C@H](CO[C@@H]2O[C@H](CO)[C@@H](O)[C@H](O)[C@H]2O)[C@@H](O)[C@H](O)[C@H]1O | 0 (no) |
| NC(=S)N=Nc1ccc(NN=C(N)N)cc1 | 1 (yes) |
| O=S(=O)(O)CCCS(=O)(=O)O | 0 (no) |
| O=C1c2ccccc2C(=O)C1c1ccc(F)cc1 | 0 (no) |
| O=C(O)CCCC/C=C(\c1ccccc1)c1cccnc1 | 0 (no) |
| CC(CCc1ccc(O)cc1)NCC(O)c1ccc(O)cc1 (centres undefined) | 0 (no) |
| C=CC[C@@H]1/C=C(\C)C[C@H](C)C[C@H](OC)[C@H]2O[C@@](O)(C(=O)C(=O)N3CCCC[C@H]3C(=O)O[C@H](/C(C)=C/[C@@H]3CC[C@@H](O)[C@H](OC)C3)[C@H](C)[C@@H](O)CC1=O)[C@H](C)C[C@@H]2OC | 1 (yes) |
| C=CCCCCCCCCC(=O)OC | 0 (no) |
| S=C1SCN(Cc2ccccc2)CN1Cc1ccccc1 | 0 (no) |
| CC(CNC(=O)c1cccnc1)NC(=O)c1cccnc1 (centres undefined) | 0 (no) |
| CCCOC(=O)c1ccccc1O | 0 (no) |
| CC1=CCC2CC1C2(C)C (centres undefined) | 0 (no) |
| O=C(O)[C@H]1C(=CCO)O[C@H]2CC(=O)N12 | 0 (no) |
| CCCOc1cc(N)ccc1C(=O)OCCN(CC)CC | 0 (no) |
| C=Cc1ccc(S(=O)(=O)O)cc1 | 0 (no) |
| CN(C)C(=O)CCSC(SCCC(=O)O)c1cccc(/C=C/c2ccc3ccc(Cl)cc3n2)c1 (centres undefined) | 0 (no) |
| CCCCCCCCCCCCCC(=O)OCC(COP(=O)([O-])OCC[N+](C)(C)C)OC(=O)CCCCCCCCCCCCC (centres undefined) | 0 (no) |
| FC(F)(F)COCC(F)(F)F | 0 (no) |
| CCCC(=O)O | 0 (no) |
| CC(C)(C)CC(C)(C)c1cc(Cc2cc(C(C)(C)CC(C)(C)C)cc(-n3nc4ccccc4n3)c2O)c(O)c(-n2nc3ccccc3n2)c1 | 0 (no) |
| CCOC(=O)c1cc(-c2ccccc2)nc2ccc(C)cc12 | 0 (no) |
| NC(N)=O | 0 (no) |
| CCCc1ccc(C(=O)O)cc1 | 0 (no) |
| CC(=O)NCCCS(=O)(=O)O | 0 (no) |
| NCC(O)CC(=O)O (centres undefined) | 0 (no) |
| CC(=O)Nc1c(I)c(C(=O)O)c(I)c(N(C)C(C)=O)c1I | 0 (no) |
| CCCCO | 0 (no) |
